Tested on: panel of cancer cell lines
runDescription: Cell viability (CellTiter-Glo) dose-response across cancer cell line panel;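 further: after 72 h compound incubation with CellTiter-Glo ATP readout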
Type: cell-based, human
settings: Homo sapiens, NCI-H747, NCI-H747
Method: Next, we explored the effect of CSN5 inhibition on the viability of cancer cells. […] A standardized CellTiter-Glo Assay (Promega #G7570) based on the quantification of ATP was applied according to the manufacturer's protocol to measure the amount of viable cells in culture. […] EC50 values were calculated from the plot of percentage of inhibition versus inhibitor concentration using the nonlinear regression analysis software Origin 7.5SR6 (OriginLab Corp.).
Please go through the items and note down their EC50.
Give just the number in nM; leave the unit off.

Incoming: Name the recorded EC50 for NS(=O)(=O)OC[C@@H]1C[C@@H](n2ccc3c(N[C@H]4CCc5ccccc54)ncnc32)C[C@@H]1O [MLN4924] .
Outgoing: 2320

Incoming: Name the recorded EC50 for COCc1ccccc1NCc1ccc([C@H]2[C@@H](O)CCCc3cncn32)c(-c2ccccc2Cl)c1 [CSN5i-2] .
Outgoing: 733
